# Read-out: Matrix Metallopeptidase 9 (MMP9), MMP9 (gene 4318)
# assay details: BSK_KF3CT_MMP9: BioMAP Diversity Plus: KF3CT Assay for Matrix Metallopeptidase 9 (MMP9) Biomarker Activity (AID 2283074)
# settings: primary human keratinocytes with fibroblasts; actives raise or lower the signal
The source made the active and inactive calls. Rule for the calls: active = hit-call score of the fitted dose curve at least 0.9, where 1 is the maximum; inactive = score below 0.9.
Possible outcomes: true (1) for active, false (0) for inactive

1. CCOC(=O)CC(CC(=O)OCC)(OC(C)=O)C(=O)OCC: false (0)
2. C=CC(=C)CCC=C(C)C: false (0)
3. CC[C@H]1OC(=O)[C@H](C)[C@@H](O[C@H]2C[C@@](C)(OC)[C@@H](O)[C@H](C)O2)[C@H](C)[C@@H](O[C@@H]2O[C@H](C)C[C@H](N(C)C)[C@H]2O)[C@](C)(O)C[C@@H](C)C(=O)[C@H](C)[C@@H](O)[C@]1(C)O: false (0)
4. CC(O)CN(CCN(CC(C)O)CC(C)O)CC(C)O (stereo not drawn): false (0)
5. C1N2CN3CN1CN(C2)C3: false (0)
6. CN(C)c1ccc(Cc2ccc(N(C)C)cc2)cc1: false (0)
7. CCCN(C1CCN(C(=O)C2CCNCC2)CC1)[C@@H]1CCc2ccc(OC)cc2C1: false (0)
8. CC1(C)C(=O)N(Br)C(=O)N1Br: false (0)
9. C1=CCCC=CCCC=CCC1: false (0)
10. CCCCCCCCCCCCCCCO: false (0)
11. CC(C)(O)c1coc(S(=O)(=O)NC(=O)Nc2c3c(cc4c2CCC4)CCC3)c1: false (0)
12. COc1ccc2sc(C(=O)Nc3nnn[nH]3)c(OC(C)C)c2c1: true (1)
13. COC(=O)c1ccccc1O: false (0)
14. Cn1c(=O)c2c(ncn2C)n(C)c1=O: false (0)
15. CNCc1ccc(NC(=O)c2c[nH]c3c2C(=O)CCC3)cc1: false (0)
16. Oc1ccc2c(c1)-c1ccccc1C2: false (0)
17. O=C(O)c1cc(N=Nc2ccc(S(=O)(=O)Nc3ccccn3)cc2)ccc1O: false (0)
18. CCOCCO: false (0)
